Below, each of the binders is paired with its reported antagonist pA2 (Schild, agonist NDP-MSH) value.
# systemUnderTest: mouse melanocortin-4 receptor (mouse, UniProt P56450 1-332)
# Sequence (P56450 whole entry): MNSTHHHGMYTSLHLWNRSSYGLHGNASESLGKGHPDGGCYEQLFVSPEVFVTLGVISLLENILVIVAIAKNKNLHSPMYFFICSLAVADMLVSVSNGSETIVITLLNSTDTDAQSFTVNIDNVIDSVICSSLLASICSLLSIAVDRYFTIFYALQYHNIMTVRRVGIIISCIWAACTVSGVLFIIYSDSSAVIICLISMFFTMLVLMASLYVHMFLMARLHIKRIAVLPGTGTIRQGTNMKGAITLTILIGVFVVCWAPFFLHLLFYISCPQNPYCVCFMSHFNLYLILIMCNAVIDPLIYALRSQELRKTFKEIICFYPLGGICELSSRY
# assayExplanation: cell-based or functional assay
Square brackets hold non-standard residues; d marks the D form. Nle = CCCC[C@H](N)C(=O)O; Dap = NC[C@H](N)C(=O)O
Kindly provide the number alone.

Recorded results for 2 binders are shown here.
cyclo(PRFF[Dap]S[Nle][dP]) (SMILES CCCC[C@@H]1NC(=O)[C@H](CO)NC(=O)[C@H](CN)NC(=O)[C@H](Cc2ccccc2)NC(=O)[C@H](Cc2ccccc2)NC(=O)[C@H](CCCNC(=N)N)NC(=O)[C@@H]2CCCN2C(=O)[C@H]2CCCN2C1=O) [c[Pro-Arg-Phe-Phe-Dap-Ser-Nle-DPro]]
9.1
cyclo(PRFFNSF[dP]) (SMILES N=C(N)NCCC[C@@H]1NC(=O)[C@@H]2CCCN2C(=O)[C@H]2CCCN2C(=O)[C@H](Cc2ccccc2)NC(=O)[C@H](CO)NC(=O)[C@H](CC(N)=O)NC(=O)[C@H](Cc2ccccc2)NC(=O)[C@H](Cc2ccccc2)NC1=O) [c[Pro-Arg-Phe-Phe-Asn-Ser-Phe-DPro]]
8.1

Would you kindly look at the next entry?
(Q) What value of antagonist pA2 (Schild, agonist NDP-MSH) has been reported for the following binder? cyclo(PRFF[Dap]A[Nle][dP]) (SMILES CCCC[C@@H]1NC(=O)[C@H](C)NC(=O)[C@H](CN)NC(=O)[C@H](Cc2ccccc2)NC(=O)[C@H](Cc2ccccc2)NC(=O)[C@H](CCCNC(=N)N)NC(=O)[C@@H]2CCCN2C(=O)[C@H]2CCCN2C1=O) [c[Pro-Arg-Phe-Phe-Dap-Ala-Nle-DPro]]
(A) 9
